Molecular target: off-target receptors, ion channels, and transporters
Test: Off-target profiling (Supplementary Data 1)
Conditions: read-out: Cav1.2 (L-type) ND7/23 Mouse/Rat - IC50; Bioprofiling 6pt Antag; KCl
pIC50: −log10 of the molar value.
measure: pIC50

State the recorded pIC50 for this entry: Cc1c(Cl)c2c(Cl)c(C)c1-c1c(-c3ccc(F)cc3)sc3ncnc(c13)O[C@@H](C(=O)O)Cc1cc(ccc1OCc1ccnc(-c3ccc(OC[C@H]4COCCO4)cc3)n1)OC[C@@H](CN1CCN(C)CC1)O2
< 5.00

---

Assay: Phase 1 first-in-human study (NCT04178902): pharmacokinetics
Format: in vivo
Settings: human, plasma, intravenous, 0.32 mg/kg, Cycle 1 day 1, dose level 0.32 mg/kg (only half of this dose given), N=2, individual values
measure: AUC(0-t) (ng·h/mL)
Respond with the bare value in ng·h/mL.

State the recorded AUC(0-t) for this entry: Cc1c(Cl)c2c(Cl)c(C)c1-c1c(-c3ccc(F)cc3)sc3ncnc(c13)O[C@@H](C(=O)O)Cc1cc(ccc1OCc1ccnc(-c3ccc(OC[C@H]4COCCO4)cc3)n1)OC[C@@H](CN1CCN(C)CC1)O2 [ABBV-467]
159

Where do these numbers come from? They come from paper PMC10600239.
